- experiment-notes: blockers of Trypanosoma cruzi growth in host cells – cell-based, NIH3T3 host, beta-gal parasite, luminescence, cherry-pick, confirmation (AID 651739)
- assay-context: T. cruzi beta-gal in NIH3T3, GalScreen luminescence, 90 h; at 8.35 µM; hits give high values
The whole screen tested about 5,600 compounds, of which about 4,100 (73%) were called active. About 4% were inconclusive and are not listed. The set was probably picked from earlier hits. Only a sample is shown.
Measured inhibition, listed per entry for reference.
Reply with just the number (in %).

Example compounds with recorded inhibition:
smiles-input | display-unit | inhibition
C[C@H](CO)N1C[C@H](C)[C@@H](CN(C)S(=O)(=O)c2ccc(F)cc2)Oc2cc(C3=CCCC3)ccc2S1(=O)=O | % | 94.1
C[C@H]1CN([C@@H](C)CO)S(=O)(=O)c2ccc(C3=CCCC3)cc2O[C@@H]1CN(C)Cc1ccccc1 | % | 96.5
OC[C@@H]1[C@H](c2ccc(C#CC3(O)CCCC3)cc2)[C@H]2CN(Cc3cncnc3)CCCCN12 | % | 99.2
O=C(c1ccc(F)cc1)N1CCCCN2[C@H](C1)[C@@H](c1ccc(C#CC3(O)CCCC3)cc1)[C@@H]2CO | % | 45.9
C[C@@H]1CN([C@H](C)CO)S(=O)(=O)c2ccc(C3=CCCC3)cc2O[C@H]1CN(C)Cc1ccccc1F | % | 99.3

Form field inhibition, entry `OC[C@@H]1[C@H](c2ccc(C#Cc3ccccc3)cc2)[C@@H]2CN(Cc3cncnc3)CCCCN12` : 104

Form field inhibition, entry `Cc1ccccc1S(=O)(=O)N1CC[C@H]2[C@H](CO)Nc3ccc(-c4cccc(F)c4)cc3[C@H]21` : 105

Form field inhibition, entry `C[C@H](CO)N1C[C@H](C)[C@@H](CN(C)C(=O)Nc2cc(F)ccc2F)Oc2cc(C#CC3CC3)ccc2S1(=O)=O` : 108

Form field inhibition, entry `COc1ccc(S(=O)(=O)N2CCCCN3[C@H](CO)[C@@H](c4ccc(C#CC(C)C)cc4)[C@H]3C2)cc1` : 109

Form field inhibition, entry `C[C@@H]1CN([C@H](C)CO)S(=O)(=O)c2ccc(-c3cccc(C#N)c3)cc2O[C@@H]1CN(C)C(=O)Nc1ccccc1F` : 86.6

Form field inhibition, entry `CN(C)CC#Cc1ccc([C@H]2[C@H]3CN(S(=O)(=O)c4ccccc4F)CCCCN3[C@H]2CO)cc1` : 83.2

Form field inhibition, entry `CCCNC(=O)N1[C@@H]2c3cccc(=O)n3C[C@H]1[C@H](CO)[C@H]2C(=O)NCC(F)(F)F` : 21.5

Form field inhibition, entry `C[C@H]1CN([C@@H](C)CO)S(=O)(=O)c2ccc(C3=CCCCC3)cc2O[C@@H]1CN(C)Cc1ccccc1` : 102

Form field inhibition, entry `Cc1cccc(-c2ccc([C@H]3[C@@H](CO)N4CCCCN(Cc5cncnc5)C[C@H]34)cc2)c1` : 84.9

Form field inhibition, entry `C[C@H](O)C#Cc1ccc([C@@H]2[C@H]3CN(S(=O)(=O)c4ccccc4)CCCCN3[C@H]2CO)cc1` : 32.8

Form field inhibition, entry `Cc1ccc(-c2ccc([C@H]3[C@H](CO)N4CCCCN(Cc5cncnc5)C[C@@H]34)cc2)cc1` : 102
